Test system: Tov-21-G
Test: Primary qHTS to identify gynecologic anti-cancer compounds using libraries of approved drugs and bioactive compounds (AID 1345084); also: nearly all actives have a fitted effect of over 55% in size; also: potency is read from the fitted curve at half-maximal effect
Settings: Gynecologic cancer cell panel viability, ATPlite luminescence, 48 h; series mostly up to 57.5 µM
Results filed as inconclusive are left out. Activity calls are given as the source filed them. Calls follow the shape of the dose curve; as a rule, active = well fitted cell-killing curve with a large enough effect; inconclusive = small, poorly fitted or top-dose-only effect, or effect the other way; inactive = flat fitted curve, though single readings scatter. Where a SMILES comes first, the peptide text is derived from it. The star is where a group is joined. AFC = O=c1cc(C(F)(F)F)c2ccc(N*)cc2o1
Measured Attribute: Potency

Reference set, count: 5
| Compound | Target System | Potency |
| --- | --- | --- |
| Cn1c(=O)cc(N2CCCC(N)C2)n(Cc2cc(F)ccc2C#N)c1=O (configuration not stated) | Tov-21-G | inactive |
| CC(=O)OC1C(c2ccccc2)CCC(c2ccccc2)C1OC(C)=O (configuration not stated) | Tov-21-G | inactive |
| OC[C@H]1O[C@@H](OC(CCCCc2ccc(O)cc2)CCc2ccc(O)cc2)[C@H](O)[C@@H](O)[C@@H]1O (some centres not stated) | Tov-21-G | inactive |
| CC(/C=C/C1=CC2=CC(=O)C(C)(O)C(O)C2=CO1)=C\C(C)CCO (configuration not stated) | Tov-21-G | inactive |
| CC1=CC(=O)CC2C1(O)CCC(C)C21CC(c2ccoc2)OC1=O (configuration not stated) | Tov-21-G | inactive |

For record Cc1ccc(S(=O)(=O)c2ccc([N+](=O)[O-])o2)cc1 the listed Potency is 7.94 µM (active)

Lab book: Potency of C[C@@H]1O[C@@H](O[C@H]2[C@@H]3C=CO[C@@H](O[C@@H]4O[C@H](CO)[C@@H](O)[C@H](O)[C@H]4O)[C@@H]3[C@@]3(CO)O[C@@H]23)[C@H](OC(=O)/C=C/c2ccc(O)c(O)c2)[C@H](O)[C@H]1O noted as inactive

Looking up COc1ccc(-c2ccc3c(N4CCOCC4)nc(N4CC(C)OC(C)C4)nc3n2)cc1CO (configuration not stated) , I found its Potency recorded as 1.26 µM (active)

Data point: CC(C)(O)/C=C/CC(C)(O)C1C(O)CC2(C)C3CCC4C(C)(C)C(=O)CCC4(C)C3CCC12C (configuration not stated) ; Potency = inactive

In plain terms, CC(=O)N[C@@H](Cc1c[nH]c2ccccc12)C(=O)N[C@@H](CCC(=O)O)C(=O)N[C@@H](Cc1cnc[nH]1)C(=O)N[C@@H](CC(=O)O)C(=O)Nc1ccc2c(C(F)(F)F)cc(=O)oc2c1 (Ac-WEHD-{AFC}) has a documented Potency of inactive

The compound listed as C=C1C(=O)O[C@@H]2C/C(C)=C\C(=O)/C=C(\C)[C@@H](OC(=O)/C(C)=C\C)[C@H](O)[C@@H]12 shows Potency equal to 7.94 µM (active)

Per the record, C=C1C(O)C(O)C2(CC3C(C)=CCC4C(C)(CO)CCCC34C)OC2C1O (configuration not stated) has Potency of inactive

get_value(item= CC1=C(/C=C/C(C)=C\C=C\C(C)=C/C(=O)O)C(C)(C)CCC1 , readout=Potency) returns inactive

Note to self: Potency recorded for CN1c2ccccc2C(=O)N2CCC3c4ccccc4NC3C21 (configuration not stated) was 6.31 µM (active)

Entry CC1=CC(=O)C2C(C)(C)CCC[C@]2(C)[C@H]1CO (some centres not stated) ; Potency = inactive

Form: compound = CC(C)S(=O)(=O)N[C@H]1CCOC[C@@H]1c1ccc(-c2ccc(C#N)s2)cc1 ; Potency = inactive

The value of Potency measured for the compound Cc1cc(C(=O)N2Cc3cnn(C)c3Nc3ccccc32)ccc1CNC(=O)N1CCC[C@H]1C(=S)N1CCCN(C)CC1 turned out to be inactive
